- Test system: PC-14
- measurementNotes: relative viability (nuclei count vs DMSO), 5 days (fraction); higher = more cells survive
- experimentalConditions: first compound 0.03162 µM
Binary label based on relative viability with cut-off 0.8: below gives Met, not below gives Not met.

>  <compound>
CCN(CC)CCCCNc1ncc2cc(-c3cc(OC)cc(OC)c3)c(NC(=O)NC(C)(C)C)nc2n1 + CCNC(=O)c1noc(-c2cc(C(C)C)c(O)cc2O)c1-c1ccc(CN2CCOCC2)cc1 [Luminespib] (partner 0.01 µM)

>  <labelValue>
Met

$$$$
>  <compound>
CCN(CC)CCCCNc1ncc2cc(-c3cc(OC)cc(OC)c3)c(NC(=O)NC(C)(C)C)nc2n1 + Nc1nc2[nH]cc(CCc3ccc(C(=O)N[C@@H](CCC(=O)O)C(=O)O)cc3)c2c(=O)[nH]1 [Pemetrexed] (partner 0.2 µM)

>  <labelValue>
Met

$$$$
>  <compound>
O=c1cc(N2CCOCC2)oc2c(-c3cccc4c3sc3ccccc34)cccc12 + CCNC(=O)c1noc(-c2cc(C(C)C)c(O)cc2O)c1-c1ccc(CN2CCOCC2)cc1 [Luminespib] (partner 0.01 µM)

>  <labelValue>
Met

$$$$
>  <compound>
O=c1cc(N2CCOCC2)oc2c(-c3cccc4c3sc3ccccc34)cccc12 + Nc1nc2[nH]cc(CCc3ccc(C(=O)N[C@@H](CCC(=O)O)C(=O)O)cc3)c2c(=O)[nH]1 [Pemetrexed] (partner 0.2 µM)

>  <labelValue>
Met

$$$$
>  <compound>
O=c1cc(N2CCOCC2)oc2c(-c3cccc4c3sc3ccccc34)cccc12 + CC1(C)CCC(c2ccc(Cl)cc2)=C(CN2CCN(c3ccc(C(=O)NS(=O)(=O)c4ccc(N[C@H](CCN5CCOCC5)CSc5ccccc5)c(S(=O)(=O)C(F)(F)F)c4)cc3)CC2)C1 [Navitoclax] (partner 0.5 µM)

>  <labelValue>
Not met

$$$$
>  <compound>
CCN(CC)CCCCNc1ncc2cc(-c3cc(OC)cc(OC)c3)c(NC(=O)NC(C)(C)C)nc2n1 + CC(=O)Nc1cccc(-n2c(=O)n(C3CC3)c(=O)c3c(Nc4ccc(I)cc4F)n(C)c(=O)c(C)c32)c1 [Trametinib] (partner 0.02 µM)

>  <labelValue>
Not met

$$$$
>  <compound>
CCN(CC)CCCCNc1ncc2cc(-c3cc(OC)cc(OC)c3)c(NC(=O)NC(C)(C)C)nc2n1 + O=C(CCCCCCC(=O)Nc1ccccc1)NO [Vorinostat] (partner 1 µM)

>  <labelValue>
Not met

$$$$
>  <compound>
O=c1cc(N2CCOCC2)oc2c(-c3cccc4c3sc3ccccc34)cccc12 + O=C(CCCCCCC(=O)Nc1ccccc1)NO [Vorinostat] (partner 1 µM)

>  <labelValue>
Met

$$$$
>  <compound>
O=c1cc(N2CCOCC2)oc2c(-c3cccc4c3sc3ccccc34)cccc12 + COc1cccc2cc(-c3nc([C@H]4CC[C@H](C(=O)O)CC4)n4ncnc(N)c34)[nH]c12 [OSI-027] (partner 0.5 µM)

>  <labelValue>
Not met

$$$$
